Biological target: T1, human C5 R885H-mmh (human, UniProt P01031 19-1676)
T1 construct: also called human C5 variant R885H
Test: SPR, mAb captured via anti-hFc, 25C
Parameter: kon (M⁻¹ s⁻¹)

• H4H12167P (antibody, human IgG4, V domains shown, Human IgG4 Fc with S108P hinge mutation (H4H)) VH: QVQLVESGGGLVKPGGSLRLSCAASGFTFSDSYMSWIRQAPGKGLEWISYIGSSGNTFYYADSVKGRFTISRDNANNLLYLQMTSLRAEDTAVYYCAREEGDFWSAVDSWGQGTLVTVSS VL: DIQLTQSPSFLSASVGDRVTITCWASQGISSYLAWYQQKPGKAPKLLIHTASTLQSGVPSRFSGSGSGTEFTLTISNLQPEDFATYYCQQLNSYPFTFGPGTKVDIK = 689000
• H4H11683N (antibody, V domains shown, also called H2M11683N) VH: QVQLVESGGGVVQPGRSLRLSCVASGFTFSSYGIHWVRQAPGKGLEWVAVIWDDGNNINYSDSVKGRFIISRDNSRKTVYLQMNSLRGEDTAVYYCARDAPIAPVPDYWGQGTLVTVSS VL: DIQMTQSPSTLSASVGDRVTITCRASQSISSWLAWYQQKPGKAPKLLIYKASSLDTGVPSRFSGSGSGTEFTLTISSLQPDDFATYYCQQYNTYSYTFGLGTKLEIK = 526000
• H4H12161P (antibody, human IgG4, V domains shown, Human IgG4 Fc with S108P hinge mutation (H4H)) VH: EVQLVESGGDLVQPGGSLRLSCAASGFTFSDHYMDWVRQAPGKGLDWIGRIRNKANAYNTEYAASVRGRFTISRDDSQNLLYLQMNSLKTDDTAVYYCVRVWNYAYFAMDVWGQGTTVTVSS VL: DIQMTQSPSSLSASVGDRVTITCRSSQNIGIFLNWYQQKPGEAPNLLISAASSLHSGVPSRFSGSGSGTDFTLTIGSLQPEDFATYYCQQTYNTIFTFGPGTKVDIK = 83600
• H4H11686N (antibody, V domains shown, also called H2M11686N) VH: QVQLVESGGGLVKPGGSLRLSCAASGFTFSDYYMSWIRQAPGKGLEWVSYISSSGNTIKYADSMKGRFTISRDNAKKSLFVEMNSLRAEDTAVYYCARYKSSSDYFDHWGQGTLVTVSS VL: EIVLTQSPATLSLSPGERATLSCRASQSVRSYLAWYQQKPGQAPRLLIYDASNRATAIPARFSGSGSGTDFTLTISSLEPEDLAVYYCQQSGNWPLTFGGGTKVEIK = 216000
